Reported pIC50 values for a set of molecules
- System Name: Protein smoothened (Mus musculus, UniProt P56726)
- Sequence (P56726 whole entry): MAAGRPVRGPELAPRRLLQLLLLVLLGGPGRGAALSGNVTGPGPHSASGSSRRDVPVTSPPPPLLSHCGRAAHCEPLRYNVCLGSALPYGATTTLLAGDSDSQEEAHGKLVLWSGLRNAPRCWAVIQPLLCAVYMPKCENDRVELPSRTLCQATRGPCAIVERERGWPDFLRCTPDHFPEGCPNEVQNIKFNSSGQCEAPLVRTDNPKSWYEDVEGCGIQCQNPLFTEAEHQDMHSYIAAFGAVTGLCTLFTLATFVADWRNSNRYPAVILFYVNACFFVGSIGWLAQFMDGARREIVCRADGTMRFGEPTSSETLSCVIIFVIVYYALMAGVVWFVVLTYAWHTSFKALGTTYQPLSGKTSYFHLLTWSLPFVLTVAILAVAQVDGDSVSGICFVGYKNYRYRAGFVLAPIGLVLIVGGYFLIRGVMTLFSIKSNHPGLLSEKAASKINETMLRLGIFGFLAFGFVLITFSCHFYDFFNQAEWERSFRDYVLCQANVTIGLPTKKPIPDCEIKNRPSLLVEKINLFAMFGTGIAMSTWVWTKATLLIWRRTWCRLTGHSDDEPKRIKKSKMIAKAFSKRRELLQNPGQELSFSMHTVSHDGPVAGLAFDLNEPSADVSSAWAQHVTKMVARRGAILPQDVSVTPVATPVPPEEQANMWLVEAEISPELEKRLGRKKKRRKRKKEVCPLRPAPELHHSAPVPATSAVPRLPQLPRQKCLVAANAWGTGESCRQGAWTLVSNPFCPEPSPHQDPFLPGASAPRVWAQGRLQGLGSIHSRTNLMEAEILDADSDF
- Protocol: Antagonist activity at Smo receptor in mouse NIH/3T3 cells harboring GRE-Luc assessed as inhibition of SAG-induced Hh signaling pathway preincubated for 1 to 2 hrs followed by SAG addition and measured after 24 hrs by Bright-Glo luciferase reporter gene assay
pIC50: −log10 of the molar value.
Measure: pIC50

INSERT INTO measurements (test_smiles, modifier_sign, data_value) VALUES
  ('CN(C(=O)c1ccc(S(N)(=O)=O)cc1)C1CCN(c2nnc(-c3ccnn3C)c3ccccc23)CC1', '=', 5.49),
  ('CN(C(=O)c1ccc(S(C)(=O)=O)cc1)C1CCN(c2nnc(-c3ccnn3C)c3ccccc23)CC1', '<', 5.00),
  ('CN(C(=O)c1ccc(C=O)cc1)C1CCN(c2nnc(-c3ccnn3C)c3ccccc23)CC1', '=', 5.54),
  ('CN(C(=O)c1ccc(F)cc1)C1CCN(c2nnc(-c3ccnn3C)c3ccccc23)CC1', '=', 5.80),
  ('CN(C)c1ccc(C(=O)N(C)C2CCN(c3nnc(-c4ccnn4C)c4ccccc34)CC2)cc1', '=', 5.85),
  ('CN(C(=O)c1ccc(S(=O)(=O)O)cc1)C1CCN(c2nnc(-c3ccnn3C)c3ccccc23)CC1', '=', 5.57),
  ('CN(C(=O)c1ccc(N)cc1)C1CCN(c2nnc(-c3ccnn3C)c3ccccc23)CC1', '=', 5.70);
